- System: Puccinia recondita f. sp. tritici
- MEASUREMENT PROTOCOL: Test E1: wheat leaf rust, wheat seedlings sprayed after inoculation
- Assay type: in vivo
- CONDITION SUMMARY: wheat seedlings inoculated, 24 h + 2 days at 20° C., then sprayed to run-off; visual rating 4 days later; 100 = 100% disease control; triplicate averaged
MEASURED PARAMETER: Test E1 disease control rating
Don't forget the unit after the number, please.

Known Test E1 disease control rating results, listed for orientation:
MOLECULE: Cc1nn(C)c(C(Cl)c2ccc(F)cc2F)c1-c1c(F)cccc1F (centres unmarked)
Test E1 disease control rating: 9%
--
MOLECULE: Cc1nn(C)c(C(Cl)c2ccc(F)cc2F)c1-c1ccc(F)cc1Cl (centres unmarked)
Test E1 disease control rating: 0%
--
MOLECULE: Cc1nn(C)c(C(F)c2ccc(F)cc2F)c1-c1c(F)cccc1F (centres unmarked)
Test E1 disease control rating: 66%
--
MOLECULE: Cc1nn(C)c(C(F)c2ccc(F)cc2F)c1-c1ccc(F)cc1Cl (centres unmarked)
Test E1 disease control rating: 40%

In the following, a different molecule is considered.
Sure, the documented Test E1 disease control rating for COc1cc(F)c(C(F)c2c(-c3c(F)cccc3F)c(C)nn2C)c(F)c1 (centres unmarked) is 98%
